targetSystem: Wee1 (h) (Homo sapiens, UniProt P30291)
Sequence (P30291 whole entry): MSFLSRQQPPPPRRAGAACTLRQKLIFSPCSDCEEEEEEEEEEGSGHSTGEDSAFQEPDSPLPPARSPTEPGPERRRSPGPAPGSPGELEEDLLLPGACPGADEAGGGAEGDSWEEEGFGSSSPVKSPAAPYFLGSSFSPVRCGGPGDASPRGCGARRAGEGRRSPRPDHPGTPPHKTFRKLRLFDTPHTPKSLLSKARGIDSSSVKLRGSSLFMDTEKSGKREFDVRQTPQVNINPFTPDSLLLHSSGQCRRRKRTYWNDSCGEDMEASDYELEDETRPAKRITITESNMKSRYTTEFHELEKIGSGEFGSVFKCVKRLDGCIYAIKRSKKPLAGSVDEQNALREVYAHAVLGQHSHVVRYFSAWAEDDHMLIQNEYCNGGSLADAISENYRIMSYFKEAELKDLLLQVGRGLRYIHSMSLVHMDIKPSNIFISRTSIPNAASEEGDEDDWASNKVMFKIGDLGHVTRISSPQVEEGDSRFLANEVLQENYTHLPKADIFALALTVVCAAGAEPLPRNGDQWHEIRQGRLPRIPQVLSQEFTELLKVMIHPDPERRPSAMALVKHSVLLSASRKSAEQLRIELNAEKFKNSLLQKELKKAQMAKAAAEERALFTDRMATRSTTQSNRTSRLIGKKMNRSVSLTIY
protocolText: Wee1 kinase (h) detection method, [γ-33P]-ATP filter assay
Type: biochemical
measurementParameters: C 1 μm compound
recordedMetric: Inh. (%) of Wee1 kinase enzyme activity

Consider the worked cases shown below.
INSERT INTO assay_data (querysmiles, targetsystem, resultunits, observedvalue) VALUES
  ('CN1CCN(c2ccc(Nc3ncc4c(n3)N3CCN=C3N(c3c(F)cccc3Cl)C4=O)cc2Cl)CC1', 'Wee1 (h) (Homo sapiens, UniProt P30291)', '%', 97),
  ('CN1CCN(c2ccc(Nc3ncc4c(n3)N3CCN=C3N(c3c(F)cccc3F)C4=O)cc2Cl)CC1', 'Wee1 (h) (Homo sapiens, UniProt P30291)', '%', 87),
  ('Cc1cc(Nc2ncc3c(n2)N2CCN=C2N(c2c(Cl)cccc2Br)C3=O)cc(F)c1N1CCC(N(C)C)CC1', 'Wee1 (h) (Homo sapiens, UniProt P30291)', '%', 98),
  ('CN1CCN(c2ccc(Nc3ncc4c(n3)N3C(=NCC3(C)C)N(c3c(F)cccc3Cl)C4=O)cc2)CC1', 'Wee1 (h) (Homo sapiens, UniProt P30291)', '%', 67),
  ('O=C1c2cnc(Nc3ccc(N4CCN(CCO)CC4)cc3)nc2N2CCN=C2N1c1c(Cl)cccc1Cl', 'Wee1 (h) (Homo sapiens, UniProt P30291)', '%', 94),
  ('Cc1cccc(C)c1N1C(=O)c2cnc(Nc3ccc(N4C[C@@H](C)N(C)[C@@H](C)C4)cc3)nc2N2CCN=C21', 'Wee1 (h) (Homo sapiens, UniProt P30291)', '%', 93),
  ('CC(=O)N1Cc2cc(Nc3ncc4c(n3)N3CCN=C3N(c3c(F)cccc3Cl)C4=O)ccc2C2(CC2)C1', 'Wee1 (h) (Homo sapiens, UniProt P30291)', '%', 97),
  ('C[C@@H]1CN(c2ccc(Nc3ncc4c(n3)N3CCN=C3N(c3c(Cl)cccc3Cl)C4=O)cc2Cl)C[C@H](C)N1C', 'Wee1 (h) (Homo sapiens, UniProt P30291)', '%', 97);

(1) O=C1c2cnc(Nc3ccc(CN4CCOCC4)cc3)nc2N2CCN=C2N1c1c(F)cccc1Cl
(2) CC(C)N1C(=O)c2cnc(Nc3ccc(N4CCN(C)CC4)cc3)nc2N2CCN=C21
(3) C[C@@H]1CN(c2ccc(Nc3ncc4c(n3)N3CCN=C3N(c3c(Cl)cccc3Cl)C4=O)c(C(F)(F)F)c2)C[C@H](C)N1C
(4) CN1CCN(c2ccc(Nc3ncc4c(n3)N3CCN=C3N(c3ccccn3)C4=O)cc2)CC1
Please produce an ascending ranking of these molecules based on Inh. (%) of Wee1 kinase enzyme activity. Answer with the labels in sequence, matching the requested order. 3, 4, 2, 1

---

targetSystem: Wee1 (h) (Homo sapiens)
protocolText: Wee1 kinase (h) detection method, [γ-33P]-ATP filter assay
Format: biochemical
measurementParameters: C 0.1 μm compound
recordedMetric: Inh. (%) of Wee1 kinase enzyme activity

INSERT INTO measurements (querysmiles, targetsystem, recordedmetric, observedvalue) VALUES
  ('CN1Cc2cc(Nc3ncc4c(n3)N3CCN=C3N(c3c(F)cccc3Cl)C4=O)ccc2C2(CC2)C1', 'Wee1 (h) (Homo sapiens)', 'Inh. (%) of Wee1 kinase enzyme activity', 93),
  ('CN1CCN(c2c(Cl)cc(Nc3ncc4c(n3)N3CCN=C3N(c3c(Cl)cccc3Cl)C4=O)cc2Cl)CC1', 'Wee1 (h) (Homo sapiens)', 'Inh. (%) of Wee1 kinase enzyme activity', 81),
  ('CN1CCN(c2c(Cl)cc(Nc3ncc4c(n3)N3CCN=C3N(c3c(Cl)cccc3Cl)C4=O)cc2Br)CC1', 'Wee1 (h) (Homo sapiens)', 'Inh. (%) of Wee1 kinase enzyme activity', 66),
  ('COc1cc(Nc2ncc3c(n2)N2CCN=C2N(c2c(F)cccc2Cl)C3=O)cc(C)c1N1CCN(C)CC1', 'Wee1 (h) (Homo sapiens)', 'Inh. (%) of Wee1 kinase enzyme activity', 73);

---

targetSystem: human Wee1 (amino acids M291 to K575) (Homo sapiens)
Sequence (P30291 291-575): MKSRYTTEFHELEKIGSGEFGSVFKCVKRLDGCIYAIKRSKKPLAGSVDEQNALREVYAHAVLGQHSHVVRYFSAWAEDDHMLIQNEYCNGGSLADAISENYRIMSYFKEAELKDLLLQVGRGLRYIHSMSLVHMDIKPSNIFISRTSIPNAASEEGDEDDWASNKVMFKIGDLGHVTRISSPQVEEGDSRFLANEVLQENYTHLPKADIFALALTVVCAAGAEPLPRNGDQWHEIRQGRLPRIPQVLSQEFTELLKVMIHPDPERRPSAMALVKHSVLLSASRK
recordedMetric: Kd (nM)
Provide only the numeric value, understood in nM.

Give the measured Kd of `CN1CCN(c2ccc(Nc3ncc4c(n3)N3CCN=C3N(c3ccccc3Cl)C4=O)cc2)CC1` . 250

---

Tested on: NCI-H1299 cells
protocolText: MTT based cell viability assay on NCI-H1299 cells
measurementParameters: Homo sapiens, NCI-H1299, NCI-H1299 cells, read-out: IC50, growth inhibition of NCI-H1299 cells
recordedMetric: IC50 (nM)

// below: answered compounds
INSERT INTO assay_data (querysmiles, observedvalue) VALUES
  ('Cc1cc(Nc2ncc3c(n2)N2CCN=C2N(c2c(C)cccc2Cl)C3=O)ccc1N1CCN(C)CC1', 310),
  ('Cc1cc(Nc2ncc3c(n2)N2CCN=C2N(c2c(Cl)cccc2Cl)C3=O)cc(Cl)c1N1C[C@@H](C)N(C)[C@@H](C)C1', 122),
  ('CN(C)C1CCN(c2ccc(Nc3ncc4c(n3)N3CCN=C3N(c3c(Cl)cccc3Cl)C4=O)cc2Br)CC1', 92.9),
  ('Cc1cc(Nc2ncc3c(n2)N2CCN=C2N(c2c(Cl)cccc2Br)C3=O)cc(F)c1N1CCN(C)CC1', 97.3),
  ('Cc1cc(Nc2ncc3c(n2)N2CCN=C2N(c2c(F)cccc2Cl)C3=O)ccc1N1C[C@@H](C)N(C(C)C)[C@@H](C)C1', 145);

(P) CN(C)C1CCN(c2ccc(Nc3ncc4c(n3)N3CCN=C3N(c3c(Cl)cccc3Cl)C4=O)cc2Cl)CC1
(Q) CN(C)C1CCN(c2ccc(Nc3ncc4c(n3)N3CCN=C3N(c3c(Cl)cccc3Cl)C4=O)cc2)CC1
Which of the two gives a bigger number for IC50: P or Q ? Write the label of whichever entry you select. Q

(A) CN1CCN(c2ccc(Nc3ncc4c(n3)N3CCN=C3N(c3c(Cl)cccc3Cl)C4=O)cc2)CC1
(B) CN1CCN(c2c(Cl)cc(Nc3ncc4c(n3)N3CCN=C3N(c3c(Cl)cccc3Cl)C4=O)cc2C(F)(F)F)CC1
Looking only at measured IC50, which entry is lower, A or B ? Your answer should be the label attached to the chosen record. A
(A: 204 nM, B: 1950 nM)

(a) CN1CCN(c2ccc(Nc3ncc4c(n3)N3CCN=C3N(c3c(F)cccc3Cl)C4=O)cc2Cl)CC1
(b) COc1cc(Nc2ncc3c(n2)N2CCN=C2N(c2c(Cl)cccc2Cl)C3=O)cc(Cl)c1N1CCN(C)CC1
Could you point out whether the larger IC50 belongs to a or to b ? When you have decided, please share the label of that item. a

---

targetSystem: Wee1 (h) (Homo sapiens)
protocolText: Wee1 kinase (h) detection method, [γ-33P]-ATP filter assay
Type: biochemical
measurementParameters: C 0.1 μm compound
recordedMetric: Inh. (%) of Wee1 kinase enzyme activity

INSERT INTO assay_data (querysmiles, targetsystem, observedvalue) VALUES
  ('CN1CCN(c2c(F)cc(Nc3ncc4c(n3)N3CCN=C3N(c3c(Cl)cccc3Cl)C4=O)cc2Br)CC1', 'Wee1 (h) (Homo sapiens)', 72),
  ('Cc1cc(Nc2ncc3c(n2)N2CCN=C2N(c2c(C)cccc2Cl)C3=O)ccc1N1CCN(C)CC1', 'Wee1 (h) (Homo sapiens)', 72),
  ('Cc1cc(Nc2ncc3c(n2)N2CCN=C2N(c2c(Cl)cccc2Br)C3=O)cc(Br)c1N1CCN(C)CC1', 'Wee1 (h) (Homo sapiens)', 82),
  ('Cc1cc(Nc2ncc3c(n2)N2CCN=C2N(c2c(Cl)cccc2Cl)C3=O)cc(Cl)c1N1C[C@@H](C)N(C)[C@@H](C)C1', 'Wee1 (h) (Homo sapiens)', 78),
  ('CN(C)CCOc1ccc(Nc2ncc3c(n2)N2CCN=C2N(c2c(F)cccc2Cl)C3=O)cc1', 'Wee1 (h) (Homo sapiens)', 85);

---

targetSystem: Wee1 (h) (Homo sapiens)
protocolText: Wee1 kinase (h) detection method, [γ-33P]-ATP filter assay
Type: biochemical
measurementParameters: C 0.1 μm compound
recordedMetric: Inh. (%) of Wee1 kinase enzyme activity

Record excerpt, results attached:
INSERT INTO assay_data (querysmiles, targetsystem, observedvalue) VALUES
  ('COc1cc(Nc2ncc3c(n2)N2CCN=C2N(c2c(Cl)cccc2Cl)C3=O)ccc1N1CCN(C)CC1', 'Wee1 (h) (Homo sapiens)', 85),
  ('CN1CCN(c2ccc(Nc3ncc4c(n3)N3CCN=C3N(c3c(Cl)cccc3Br)C4=O)cc2Cl)CC1', 'Wee1 (h) (Homo sapiens)', 72),
  ('CN1Cc2cc(Nc3ncc4c(n3)N3CCN=C3N(c3c(Cl)cccc3Cl)C4=O)ccc2C2(CC2)C1', 'Wee1 (h) (Homo sapiens)', 86),
  ('CN1CCc2ccc(Nc3ncc4c(n3)N3CCN=C3N(c3c(F)cccc3Cl)C4=O)cc2C1', 'Wee1 (h) (Homo sapiens)', 93),
  ('C[C@@H]1CN(c2ccc(Nc3ncc4c(n3)N3CCN=C3N(c3c(F)cccc3Cl)C4=O)cc2)C[C@H](C)N1C', 'Wee1 (h) (Homo sapiens)', 93);

(a) Cc1cc(Nc2ncc3c(n2)N2CCN=C2N(c2c(F)cccc2Cl)C3=O)ccc1N1CCC(N(C)C)CC1
(b) Cc1cccc(C)c1N1C(=O)c2cnc(Nc3ccc(N4CCN(C)CC4)cc3)nc2N2CCN=C21
Of the two listed items, which has the higher Inh. (%) of Wee1 kinase enzyme activity? First: a Second: b Write the label of whichever entry you select. a
